# Test system: PIK3CA
# condition.parameters: concentration: 1 μM, replicates: in singlicate; n = 1;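 further: KINOMEscan kinase panel screen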
metric.name: %Inh (%)
# output: bare number, implied unit %

>>> print(df.to_string())
                                   molecule  metric_name  recorded_number
0  Cl.NC(=O)c1cccc(Nc2nccc(Nc3ccc(Oc4c(Cl)cccc4Cl)c(Cl)c3)n2)c1         %Inh                0
1  CSc1cccc2c(-c3ccncn3)c(-c3ccc(F)cc3)nn12         %Inh                0
2  Nc1ncc(-c2ccc3nccc(-c4ccncc4)c3c2)cc1S(=O)(=O)N1CCOCC1         %Inh              100
3  CN1CCN(Cc2cccc(-c3ccc4c(Nc5ccc(Oc6ccccc6)cc5)ccnc4c3)c2)CC1         %Inh                0
4  NCCCC(NC(=O)c1cc(Br)c(-c2ccnc3[nH]ccc23)s1)c1ccccc1.O=C(O)C(F)(F)F.O=C(O)C(F)(F)F (centres unmarked)         %Inh                0
5  CN(C)S(=O)(=O)c1cc(-c2ccc3nccc(-c4cccc(S(N)(=O)=O)c4)c3c2)cnc1N         %Inh              100
6  c1ccc(Oc2ccc(Nc3ccnc4cc(-c5ccc(CNCCN6CCOCC6)o5)ccc34)cc2)nc1         %Inh                0
7  Cl.c1ccc(-c2ccc3c(Nc4ccc5[nH]ncc5c4)ccnc3c2)nc1         %Inh                6
8  CN(C)Cc1ccc(-c2ccc3c(Nc4ccc(Oc5ccccn5)cc4)ccnc3c2)o1         %Inh                0
9  COc1cccc(NC(=O)NC2CCN(c3ccnc(Nc4cc(OC)c(OC)c(OC)c4)n3)C2)c1 (centres unmarked)         %Inh                0

Now examine the next entry.
For record "O=C(Nc1n[nH]c2nc(-c3ccc(O)cc3)ccc12)C1CC1" the listed %Inh is 0

---

# Tested on: RSK1(Kin.Dom.1-N-terminal)
# Construct: gene RPS6KA1
# condition.parameters: concentration: 1 μM, replicates: in singlicate; n = 1
metric.name: %Inh (%)
# output: bare number, implied unit %

>>> print(df.to_string())
                                   compound  measure_unit  recorded_number
0  COc1cc(Nc2nccc(N3CCC(NC(=O)Nc4cccc(C(C)=O)c4)C3)n2)cc(OC)c1OC (stereo not shown)             %               15
1  CCc1ccc(-c2ccc3c(c2)-c2c(cnn2C)S(=O)(=O)N3C)cc1             %               10
2  NCCCC(NC(=O)c1cc(Br)c(-c2ccnc3[nH]ccc23)s1)c1ccccc1.O=C(O)C(F)(F)F.O=C(O)C(F)(F)F (stereo not shown)             %                0
3  COc1cc2c(cc1OCCN1CCNCC1)ncc1c3ccc(C#N)cc3[nH]c21             %               13
4  c1ccc(Oc2ccc(Nc3ccnc4cc(-c5ccc(CNCCN6CCOCC6)o5)ccc34)cc2)nc1             %             93.3
5  O=c1[nH]cc(-c2ccc(N3CCOCC3)cc2)c2sc(-c3cn[nH]c3)cc12             %               29

For record "COc1ccc(-c2coc3ccc(-c4nnc(SCc5ccc(OC)c(C(F)(F)F)c5)o4)cc23)cc1" the listed %Inh is 1
